For each of the compounds below, state its inhibition.
Target: N-formyl peptide receptor 2 (Homo sapiens)
Test: FPRL1 fluorescent ligand binding inhibitors, cell-based, flow cytometry, single concentration (AID 765)
Conditions: FPRL1-expressing cells, active compounds read high; at 5.1 µM unless noted
Activity calls are given as the source filed them. Rule as the data show it: active = inhibition above about 31%; inactive = the rest.

# count of solved cases: 4
| Compound smiles | inhibition |
| --- | --- |
| Clc1cccc(-c2nc(N3CCN(c4ccccn4)CC3)nc3c2COc2ccccc2-3)c1 | -0.8% [at 4.9 µM] (inactive) |
| FC(F)(F)c1cc(-c2ccco2)nc(N2CCN(C(c3ccccc3)c3ccccc3)CC2)n1 | -10.5% [at 4.8 µM] (inactive) |
| O=C(N1CCN(c2nc(-c3ccccc3)c3ccccc3n2)CC1)C(F)(F)F | 24.8% [at 5.8 µM] (inactive) |
| COc1ccc(-c2cn3cccnc3n2)cc1NC(=O)c1ccc(OC)c(OC)c1 | -6% [at 5.5 µM] (inactive) |

Then this compound:
Give the reported inhibition for this compound. Fc1ccc(-c2cc(C(F)(F)F)nc(N3CCN(c4cccc(Cl)c4)CC3)n2)cc1
19.5% (inactive)

These data points were gathered from PubChem BioAssay AID765.
